B1: TRIB1 (parent)
chain: SYVRSRKRLREEEAARLFKQIVSA

variants of: B1; test: protein stability index of a GFP-peptide fusion (GPS, HEK-293T) (PSI 1-6); higher = more stable; conditions: c terminus: a fixed tail appended;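 note: lentivirally expressed fusions sorted by FACS into six bins by GFP to DsRed ratio, PSI derived from sequencing read proportions per bin multiplied by bin number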
Exercise: for every item that follows, state its recorded protein stability index.
Simply state the number, no unit and no words.

Data request: Supply reported protein stability index belonging to this variant: `R6D`
Data returned: 2.99

Data request: Please indicate protein stability index recorded for `V3F`
Data returned: 2.64

Data request: Provide only the value of recorded protein stability index for `Q20G`
Data returned: 2.52

Data request: Recall and state the measured protein stability index for `Q20R` .
Data returned: 1.95

Data request: Provide protein stability index value for the following variant: `V3H`
Data returned: 1.22

Data request: Identify the reported protein stability index for the following entry. `F18N`
Data returned: 3.1

Data request: Entry `I21D` needs its protein stability index filled in; supply it.
Data returned: 4.08

Data request: Using known records, supply protein stability index for `L9C`
Data returned: 1.5

Data request: Return value of protein stability index for input `A24Q` , no commentary.
Data returned: 2.18

Data request: Identify protein stability index associated with the variant `R8V`
Data returned: 2.37

Data request: Output protein stability index of `E11F`
Data returned: 3.54

Data request: Identify protein stability index associated with the variant `E13Y`
Data returned: 2.14

Data request: Please look at this variant and report its protein stability index: `F18G`
Data returned: 3.92

Data request: Kindly indicate its recorded protein stability index. Item: `V22I`
Data returned: 2.94

Data request: Please look at this variant and report its protein stability index: `K7R`
Data returned: 2.11

Data request: For the variant `E12I` , give its measured protein stability index value.
Data returned: 2.65

Data request: Could you please provide reported protein stability index for `L9R` ? Thanks!
Data returned: 2.07

Data request: Please supply the value of reported protein stability index for the item `Y2G`
Data returned: 1.83

Data request: Annotate the variant `R16D` with its measured protein stability index.
Data returned: 2.17

Data request: Specify reported protein stability index for the variant shown: `V22F`
Data returned: 1.83

Data request: Item `A15Q` : provide protein stability index
Data returned: 2.15

Data request: Identify protein stability index associated with the variant `R6P`
Data returned: 2.66

Data request: Report measured protein stability index; entry is `S23D`
Data returned: 3.05

Data request: Input `E11R` , output reported protein stability index.
Data returned: 1.54

Data request: Return protein stability index (reported value) for this variant: `Y2K`
Data returned: 2.14

Data request: Respond only with protein stability index recorded for `A15N`
Data returned: 2.48

Data request: State its protein stability index: `E11K`
Data returned: 2.25

Data request: // Input: `S5K` . Output its protein stability index only.
Data returned: 2.31

Data request: Let me know recorded protein stability index for `E13K` , thanks.
Data returned: 2.94

Data request: Identify measured protein stability index corresponding to `V3S`
Data returned: 2.36

Data request: Quick one: give measured protein stability index for `K7G`
Data returned: 2.99

Data request: Query protein stability index for `V3A`
Data returned: 1.68

Data request: Fill in reported protein stability index for this entry: `I21Q`
Data returned: 2.06

Data request: Please give the documented protein stability index of `V22A`
Data returned: 2.58

Data request: Using known records, supply protein stability index for `A24K`
Data returned: 2.97

Data request: Give the reported value of protein stability index for this record: `L9I`
Data returned: 3.23

Data request: Kindly indicate its recorded protein stability index. Item: `L17Q`
Data returned: 2.1

Data request: Report protein stability index, nothing else, for this variant: `L17A`
Data returned: 2.49

Data request: Indicate its recorded protein stability index; the variant in question is `K19S`
Data returned: 2.31

Data request: Supply protein stability index value. Item: `L17N`
Data returned: 3.21

Data request: Dear colleague, please send me the reported protein stability index for `A24E` when you can.
Data returned: 1.99

Data request: Output measured protein stability index for this item: `R8Q`
Data returned: 2.38

Data request: Give the value of protein stability index reported for the following: `S1R`
Data returned: 1.95

Data request: Kindly indicate its recorded protein stability index. Item: `S23T`
Data returned: 1.75

Data request: Look up and report measured protein stability index for this entry: `R16H`
Data returned: 2.2

Data request: Hello, please tell me recorded protein stability index for this one: `R10C`
Data returned: 1.5

Data request: Identify measured protein stability index associated with `V3G`
Data returned: 1.3

Data request: Let me know recorded protein stability index for `R10G` , thanks.
Data returned: 3.19

Data request: Determine its reported protein stability index: `L9S`
Data returned: 2.44

Data request: // Input: `F18E` . Output its protein stability index only.
Data returned: 3.02

Data request: Check the records and state protein stability index for `A14P`
Data returned: 2.56

Data request: Please report protein stability index for the following variant: `R16P`
Data returned: 3.39

Data request: Tell us which protein stability index value is on record for `S23C`
Data returned: 1.63

Data request: Tell me its protein stability index given `A15Y` as the entry.
Data returned: 1.71

Data request: Determine its reported protein stability index: `Y2N`
Data returned: 2.83

Data request: Indicate the recorded protein stability index value for this variant: `R16C`
Data returned: 2.01

Data request: Give the reported protein stability index for this variant. `A14V`
Data returned: 2.09

Data request: Respond only with protein stability index recorded for `K19P`
Data returned: 2.81

Data request: Return the recorded protein stability index value; entry: `L9K`
Data returned: 2.25

Data request: Quick one: give measured protein stability index for `R10Q`
Data returned: 2.22

Data request: In one line, give reported protein stability index of the entry `E11M` .
Data returned: 1.66
